B1: KRT18 (parent)
chain: RAQYDELARKNREELDKYWSQQIE

Variants of: B1
protocol-description: protein stability index of a GFP-peptide fusion (GPS, HEK-293T) (PSI 1-6); higher = more stable;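 also: lentivirally expressed fusions sorted by FACS into six bins by GFP to DsRed ratio, PSI derived from sequencing read proportions per bin multiplied by bin number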
measurement-context: c terminus: a fixed tail appended
measured-endpoint: protein stability index
// print number alone

Task item: I'd like to know its protein stability index. The variant in question is L15A
Reply: 4.37

Task item: I'd like to know its protein stability index. The variant in question is D5S
Reply: 2.79

Task item: I'd like to know its protein stability index. The variant in question is E13I
Reply: 2.05

Task item: I'd like to know its protein stability index. The variant in question is D16M
Reply: 2.74

Task item: I'd like to know its protein stability index. The variant in question is D5A
Reply: 2.74

Task item: I'd like to know its protein stability index. The variant in question is Q22V
Reply: 3.08

Task item: I'd like to know its protein stability index. The variant in question is Q3G
Reply: 3.21

Task item: I'd like to know its protein stability index. The variant in question is E14A
Reply: 3.82

Task item: I'd like to know its protein stability index. The variant in question is Q22I
Reply: 3.37

Task item: I'd like to know its protein stability index. The variant in question is S20F
Reply: 3.04

Task item: I'd like to know its protein stability index. The variant in question is E24D
Reply: 3.8

Task item: I'd like to know its protein stability index. The variant in question is R1C
Reply: 2.19

Task item: I'd like to know its protein stability index. The variant in question is D5N
Reply: 3.17

Task item: I'd like to know its protein stability index. The variant in question is E24V
Reply: 3.01

Task item: I'd like to know its protein stability index. The variant in question is L15F
Reply: 3.22

Task item: I'd like to know its protein stability index. The variant in question is R9W
Reply: 2.62

Task item: I'd like to know its protein stability index. The variant in question is L15W
Reply: 1.95

Task item: I'd like to know its protein stability index. The variant in question is L7P
Reply: 4.08

Task item: I'd like to know its protein stability index. The variant in question is Q22K
Reply: 4.27

Task item: I'd like to know its protein stability index. The variant in question is D16Q
Reply: 2.69

Task item: I'd like to know its protein stability index. The variant in question is N11E
Reply: 4.54

Task item: I'd like to know its protein stability index. The variant in question is R12M
Reply: 3.72

Task item: I'd like to know its protein stability index. The variant in question is S20D
Reply: 4.29

Task item: I'd like to know its protein stability index. The variant in question is D16T
Reply: 2.92

Task item: I'd like to know its protein stability index. The variant in question is L15N
Reply: 3.57

Task item: I'd like to know its protein stability index. The variant in question is R1A
Reply: 3.38

Task item: I'd like to know its protein stability index. The variant in question is Q22H
Reply: 4.67

Task item: I'd like to know its protein stability index. The variant in question is E14V
Reply: 3.62

Task item: I'd like to know its protein stability index. The variant in question is Q22Y
Reply: 3.44

Task item: I'd like to know its protein stability index. The variant in question is Q21H
Reply: 3.41

Task item: I'd like to know its protein stability index. The variant in question is L7H
Reply: 3.62

Task item: I'd like to know its protein stability index. The variant in question is R1V
Reply: 3.71

Task item: I'd like to know its protein stability index. The variant in question is K10M
Reply: 4.04

Task item: I'd like to know its protein stability index. The variant in question is Y4L
Reply: 2.25

Task item: I'd like to know its protein stability index. The variant in question is A8S
Reply: 3.5

Task item: I'd like to know its protein stability index. The variant in question is Q3F
Reply: 2.38

Task item: I'd like to know its protein stability index. The variant in question is E24L
Reply: 2.23

Task item: I'd like to know its protein stability index. The variant in question is E14F
Reply: 2.5

Task item: I'd like to know its protein stability index. The variant in question is E14T
Reply: 3.56

Task item: I'd like to know its protein stability index. The variant in question is N11I
Reply: 2.37

Task item: I'd like to know its protein stability index. The variant in question is R9G
Reply: 4.53

Task item: I'd like to know its protein stability index. The variant in question is R1I
Reply: 2.79

Task item: I'd like to know its protein stability index. The variant in question is R1G
Reply: 3.12

Task item: I'd like to know its protein stability index. The variant in question is A8Q
Reply: 3.75

Task item: I'd like to know its protein stability index. The variant in question is Y4D
Reply: 3.23

Task item: I'd like to know its protein stability index. The variant in question is R9Q
Reply: 3.16
